target: T1, Nbp2, Q12163
T1 sequence (Q12163 103-180, looked up): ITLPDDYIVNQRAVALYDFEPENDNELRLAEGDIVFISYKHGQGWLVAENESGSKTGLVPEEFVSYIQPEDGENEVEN
assay.info: SPOT array
condition.set: median of control spots 357
reported.metric: SPOT intensity
Please state the value as a number alone, without comment.

Known SPOT intensity results, listed for orientation:
binder: RKRAPTPPAPSRSEK
SPOT intensity: 283

binder: IPSRPAPKPPSSASA
SPOT intensity: 1230

binder: RRSKSLPTTPGIRSG
SPOT intensity: 49

binder: QRKSLRRPTLSKPAV
SPOT intensity: 5

binder: MPAPPPPPPPPPGAF
SPOT intensity: 0

binder: FYHRPAPKPPVTKKV
SPOT intensity: 314

binder: RSLRKRPTSPSISGS
SPOT intensity: 198

binder: ATNVPVAPPPPPASL
SPOT intensity: 0

binder: RRRIAYPFYPFKKLG
SPOT intensity: 21

binder: SRQAIPPPVPNRPGG
SPOT intensity: 1

The record that follows has no SPOT intensity shown yet.
Which SPOT intensity is reported for this binder? PPIPNAPLSPAPAVP
0

Value source: paper PMC2756588
